protocol-description: Stability of the compound in simulated intestinal fluid assessed as parent compound remaining measured after 2 hrs by UPLC analysis
Assay type: ADME
condition-description: read-out: Stability
quantity-kind: remaining at 2 h
# include the unit after the value

- Cc1cc(-c2ccc(OCCn3c([N+](=O)[O-])cnc3C)cc2)nc2ccccc12: 43.6%

Next item in the queue.
Task: Tell me the measured remaining at 2 h of Cc1cc(-c2cccc(OCCn3c([N+](=O)[O-])cnc3C)c2)nc2ccccc12 , please.
Output: 11.4%

----------
protocol-description: Cytotoxicity against mouse J774 cells assessed as cell viability up to 50 uM measured after 48 hrs by MTT assay relative to control
Format: cell-based
condition-description: read-out: Activity
The following compounds are shown together with reported viability at 48 h values.

• Cc1cc(-c2ccc(OCCn3c([N+](=O)[O-])cnc3C)cc2)nc2ccccc12 = > 92%

Next item in the queue.
Task: Tell me the measured viability at 48 h of Cc1cc(-c2cccc(OCCn3c([N+](=O)[O-])cnc3C)c2)nc2ccccc12 , please.
Output: > 92%

----------
protocol-description: Elimination rate constant in BALB/c mouse at 50 mg/kg, po administered via gavage by LC-MS/MS analysis
Type: ADME, organism-based
condition-description: in vivo
quantity-kind: k el (s⁻¹)
Reply numerically in s⁻¹, unit not repeated.

Task: Tell me the measured k el of Cc1cc(-c2ccc(OCCn3c([N+](=O)[O-])cnc3C)cc2)nc2ccccc12 , please.
Output: 4.72e-05

----------
protocol-description: Clearance in BALB/c mouse at 50 mg/kg, po administered via gavage by LC-MS/MS analysis
Format: ADME, organism-based
condition-description: in vivo
quantity-kind: CL/F

Task: Tell me the measured CL/F of Cc1cc(-c2ccc(OCCn3c([N+](=O)[O-])cnc3C)cc2)nc2ccccc12 , please.
Output: 2.75 L/h/kg

----------
The following molecules are shown together with reported Activity values.
Test system: Leishmania donovani
protocol-description: Antileishmanial activity against Leishmania donovani MHOM/IN/80/Dd8 promastigotes infected in BALB/c mouse assessed as reduction in parasite load in spleen at 50 mg/kg, ip administered once daily for 5 days measured 7 days post dose by giemsa staining-based assay relative to control
Type: functional
Parameters: scale not given: the % may be the effect or the level left

Task: Request: Activity, test system Leishmania donovani, entry Cc1ncc([N+](=O)[O-])n1CCO
Output: 36.6%

Task: Request: Activity, test system Leishmania donovani, entry Cc1cc(-c2cccc(OCCn3c([N+](=O)[O-])cnc3C)c2)nc2ccccc12
Output: >50%

Task: Request: Activity, test system Leishmania donovani, entry Cc1cc(-c2ccc(OCCn3c([N+](=O)[O-])cnc3C)cc2)nc2ccccc12
Output: >80.3%

Task: Request: Activity, test system Leishmania donovani, entry c1ccc2ncccc2c1
Output: 55.2%
